System: NCI-H522 lung
Experiment: NCI tumour cell line growth inhibition, 48 h
Where a SMILES comes first, the peptide text is derived from it. [ ]: non-standard residue; d: D form. The star is where a group is joined. hSer = N[CH](CCO)C(=O)O; Boc = CC(C)(C)OC(=O)*
Threshold check on TGI: at or above 7 µM gives fulfilled, strictly below gives not fulfilled.

Below are worked cases with known answers.
{"MOLECULE": "COc1ccc(-c2cc3c4c(nc5ccccc5c4c2)CC(c2cc(OC)c(OC)c(OC)c2)O3)cc1 (stereo not drawn)", "QUALITATIVE_LABEL": "fulfilled"}
{"MOLECULE": "COC(=O)[C@]1(C)CCCn2c(=O)n(-c3ccccc3)c(=O)n21", "QUALITATIVE_LABEL": "fulfilled"}
{"MOLECULE": "O=c1[nH]cnc2c1nnn2CCCn1nnc2c(=O)[nH]cnc21", "QUALITATIVE_LABEL": "fulfilled"}
{"MOLECULE": "COCCC(NC(=O)C(CC(C)C)NC(=O)OC(C)(C)C)C(N)=O (stereo not drawn) (Boc-Leu-[hSer](Me)-NH2; configuration not given here)", "QUALITATIVE_LABEL": "fulfilled"}
{"MOLECULE": "[Cu+2].[Cu+2].[O-]c1ccccc1C=Nc1ccccc1[O-].[O-]c1ccccc1C=Nc1ccccc1[O-]", "QUALITATIVE_LABEL": "not fulfilled"}

Form field: TGI at least 7 µM? Entry: COc1c2nc(CCl)n(C)c(=O)c2c(OC)c2c(=O)n(C)c(CCl)nc12
not fulfilled

Consider next the molecule COc1cc2c(cc1O)[C@H](C)C(c1ccc(Cl)cc1)O2 (stereo partly drawn) in the same way.
fulfilled

Another molecule to look at: Cc1ccc(OP2(=O)Oc3ccc4ccccc4c3CN2c2ccc(Cl)cc2)cc1C (stereo not drawn)
fulfilled

Try this molecule too: CC12CC3c4ccccc4CN1C3(c1ccccc1)OC2=O (stereo not drawn)
fulfilled

What about O=S(=O)(c1cccc(C(F)(F)F)c1)N1c2ccccc2-n2cccc2C1c1cccnc1 (stereo not drawn) ?
fulfilled
